Biological target: Fibroblast growth factor 10 (Homo sapiens) (UniProt O15520)
Sequence (O15520 whole entry, looked up): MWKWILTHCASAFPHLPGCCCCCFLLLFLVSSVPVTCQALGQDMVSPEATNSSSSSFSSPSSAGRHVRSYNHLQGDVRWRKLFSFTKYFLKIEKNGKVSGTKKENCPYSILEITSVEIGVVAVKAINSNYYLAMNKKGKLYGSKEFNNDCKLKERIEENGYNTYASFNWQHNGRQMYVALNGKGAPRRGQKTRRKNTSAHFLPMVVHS
Assay: FGF10 binders on small-molecule microarrays, primary screen, biochemical, small-molecule microarray, 635 nm fluorescence (AID 1102)
Settings: FGF10 binding, fluorescence 635 nm, higher = more signal
Field: class. Source value: composite z-score. Ranges: Low: < 0.6; Mid: ≥ 0.6 and < 1; High: ≥ 1

{"compound": "COC(=O)[C@@]1(Cc2ccc(OC)cc2)[C@@H]2[C@@H](CC(=O)[C@H]2CC(=O)C(=O)N(C)C)CN1C(=O)c1ccccc1", "classification": "High"}
{"compound": "CN(C)CCCCNC(=O)[C@H]1C[C@H]2C(=O)N[C@@H](CCCCN(C)C)C(=O)N2[C@H]1c1ccc(O)cc1", "classification": "Low"}
{"compound": "CCOC(=O)C1=CCC(c2ccncc2)N(S(=O)(=O)c2ccc(C)cc2)C1 (centres undefined)", "classification": "High"}
{"compound": "[N-]=[N+]=Nc1ccccc1C[C@]1(C(N)=O)COC(c2ccc(OCCCO)cc2)=N1", "classification": "Low"}
{"compound": "C[N+](C)(C)CCCC[C@@H]1NC(=O)[C@H]2C[C@@H](C(=O)O)[C@@H](c3ccc(O)cc3)N2C1=O", "classification": "Low"}
{"compound": "O=C(NC1CC1)[C@@H]1c2ccccc2C(=O)N(C2CCCCC2)[C@H]1c1ccc(CO)cc1", "classification": "Low"}
{"compound": "COc1ccc(NN2C(C(O)c3ccccc3)C=CC3C(=O)N(C4CCCCC4)C(=O)C32)cc1 (centres undefined)", "classification": "High"}
{"compound": "COc1ccc(-c2cc3c(c(CCc4ccccc4)n2)[Si](C(C)C)(C(C)C)O[C@H]3c2ccccc2)cn1", "classification": "Low"}
{"compound": "C=CCNC(=O)[C@H]1[C@@H]2C(=O)O[C@@H](c3ccccc3)[C@@H](c3ccccc3)N2[C@@H](c2ccc(O)cc2)[C@]12C(=O)Nc1ccc(C#CCC(C(=O)OC)C(=O)OC)cc12", "classification": "Mid"}
{"compound": "COCCCNC(=O)[C@@]1(CCC(=O)OC(C)(C)C)N=C(c2ccc(OCCCO)cc2)O[C@H]1c1ccccc1", "classification": "Mid"}
{"compound": "CC(C)c1ccc(NN2C(C(O)C3CCCCC3)C=CC3C(=O)N(c4ccccc4)C(=O)C32)cc1 (centres undefined)", "classification": "Mid"}
{"compound": "COCCCNC(=O)[C@@]1(Cc2ccccc2I)c2ccccc2C(=O)N(Cc2ccccc2C(F)(F)F)[C@H]1c1ccc(CO)cc1", "classification": "Low"}
{"compound": "COC(=O)C1=CC(CCCO)=CC(c2ccc(CN3CCCC3)cc2)N(C)C=C1C(=O)OC (centres undefined)", "classification": "Mid"}
{"compound": "C=C(COC)C(=O)CC[C@H](OC(C)=O)c1ccccc1OCCO", "classification": "High"}
{"compound": "[N-]=[N+]=NCc1ccccc1C[C@@]1(C(N)=O)N=C(c2ccc(OCCCO)cc2)O[C@@H]1c1ccccc1N=[N+]=[N-]", "classification": "Mid"}
{"compound": "COc1ccc(CCNC(=O)[C@@]2(C)c3ccccc3C(=O)N(Cc3ccc(OC(F)(F)F)cc3)[C@H]2c2ccc(CO)cc2)cc1", "classification": "High"}
{"compound": "COC(=O)[C@@]1(Cc2ccccc2)[C@H]2c3cc(C(=O)N(C)C)n(Cc4ccc(Cl)c(C(F)(F)F)c4)c3C[C@H]2CN1C(=O)c1ccccc1", "classification": "High"}
{"compound": "NCCCCCCNC(=O)[C@@H]1C[C@@H]2C(=O)NCC(=O)N2[C@@H]1c1cccc(OCCO)c1", "classification": "High"}
